B1: glmS ribozyme (parent)
chain: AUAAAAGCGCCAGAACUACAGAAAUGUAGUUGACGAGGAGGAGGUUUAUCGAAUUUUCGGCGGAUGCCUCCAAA

- Variants of: B1
- EXPERIMENT: self-cleavage kobs at 40 uM GlcN6P; higher = faster cleavage; RNA array
- CONDITION_CONTEXT: with glucosamine-6-phosphate
Variants at the floor of the assay were thinned out.
OBSERVATION_TYPE: self-cleavage kobs at 40 uM GlcN6P

- MUTATIONS: "C10U U65C"
  OBSERVATION_TYPE: "self-cleavage kobs at 40 uM GlcN6P"
  REPORTED_VALUE: "< 1e-05 s⁻¹"
- MUTATIONS: "C11U G29A G32U C50G"
  OBSERVATION_TYPE: "self-cleavage kobs at 40 uM GlcN6P"
  REPORTED_VALUE: "7.73e-05 s⁻¹"

For the variant U46A U69A , give its measured self-cleavage kobs at 40 uM GlcN6P value.
< 1e-05 s⁻¹

State its self-cleavage kobs at 40 uM GlcN6P: G32C U45C C58G G59U
< 1e-05 s⁻¹

Tell me self-cleavage kobs at 40 uM GlcN6P reported for A15C U57G
< 1e-05 s⁻¹

For the variant U30C U45G , give its reported self-cleavage kobs at 40 uM GlcN6P.
< 1e-05 s⁻¹

Look up self-cleavage kobs at 40 uM GlcN6P of A15C G35U A36G U65C C68A and report it.
< 1e-05 s⁻¹
